System: M184V pseudotyped virus in U373 cells;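 further: reported value is IC50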
Type: cell-based, HIV
Reported Conditions: Table 5; mean of a greater number of data replicates
Result Type: pIC50
Answer as the number alone; pIC50 is minus log10 of concentration in mol/L.

Some entries whose results are on file:
>  <Compound>
C#C[C@]1(COC(=O)C(CCC)CCC)O[C@@H](n2cnc3c(N)nc(F)nc32)C[C@@H]1O

>  <Subject Of Test>
M184V pseudotyped virus in U373 cells;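 further: reported value is IC50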

>  <pIC50>
6.95

$$$$
>  <Compound>
C#C[C@]1(COC(=O)CCCCCCCCC)O[C@@H](n2cnc3c(N)nc(F)nc32)C[C@@H]1O

>  <Subject Of Test>
M184V pseudotyped virus in U373 cells;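 further: reported value is IC50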

>  <pIC50>
7.85

$$$$
>  <Compound>
C#C[C@]1(COC(=O)C(CCCCCC)CCCCCCCC)O[C@@H](n2cnc3c(N)nc(F)nc32)C[C@@H]1O (stereo partly drawn)

>  <Subject Of Test>
M184V pseudotyped virus in U373 cells;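 further: reported value is IC50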

>  <pIC50>
6.75

$$$$
>  <Compound>
C#C[C@]1(COC(=O)C(C)(C)C(F)(F)F)O[C@@H](n2cnc3c(N)nc(F)nc32)C[C@@H]1O

>  <Subject Of Test>
M184V pseudotyped virus in U373 cells;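 further: reported value is IC50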

>  <pIC50>
7.05

$$$$
>  <Compound>
C#C[C@]1(COC(=O)CCCCCCCCCCCCCCCC)O[C@@H](n2cnc3c(N)nc(F)nc32)C[C@@H]1O

>  <Subject Of Test>
M184V pseudotyped virus in U373 cells;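 further: reported value is IC50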

>  <pIC50>
7.59

$$$$
>  <Compound>
C#C[C@]1(COC(=O)CCCC)O[C@@H](n2cnc3c(N)nc(F)nc32)C[C@@H]1O

>  <Subject Of Test>
M184V pseudotyped virus in U373 cells;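 further: reported value is IC50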

>  <pIC50>
7.72

$$$$
>  <Compound>
C#C[C@]1(COC(=O)CCCCCCCC#CC)O[C@@H](n2cnc3c(N)nc(F)nc32)C[C@@H]1O

>  <Subject Of Test>
M184V pseudotyped virus in U373 cells;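 further: reported value is IC50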

>  <pIC50>
7.89

$$$$
>  <Compound>
C#C[C@]1(COC(C)=O)O[C@@H](n2cnc3c(N)nc(F)nc32)C[C@@H]1O

>  <Subject Of Test>
M184V pseudotyped virus in U373 cells;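 further: reported value is IC50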

>  <pIC50>
7.26

$$$$

Item: `C#C[C@]1(COC(=O)CCCCCCCC)O[C@@H](n2cnc3c(N)nc(F)nc32)C[C@@H]1O` Test system: M184V pseudotyped virus in U373 cells Read-out: pIC50 Value: ?;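 further: reported value is IC50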
7.89

Form entry - test system: M184V pseudotyped virus in U373 cells; read-out: pIC50; compound: `C#C[C@]1(COC(=O)CCCCCCCCCCCCCC)O[C@@H](n2cnc3c(N)nc(F)nc32)C[C@@H]1O`;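 further: reported value is IC50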
7.96

Request: pIC50, test system M184V pseudotyped virus in U373 cells, entry `C#C[C@]1(COC(=O)CCCCCCCCCCCCC)O[C@@H](n2cnc3c(N)nc(F)nc32)C[C@@H]1O`;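 further: reported value is IC50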
8.00

Which pIC50 is reported with M184V pseudotyped virus in U373 cells for this entry: `C#C[C@]1(COC(=O)CCCCCCCCCC)O[C@@H](n2cnc3c(N)nc(F)nc32)C[C@@H]1O` ?
8.05

API: value(readout= pIC50, system= M184V pseudotyped virus in U373 cells, query= `C#C[C@]1(COC(=O)CC(F)(F)F)O[C@@H](n2cnc3c(N)nc(F)nc32)C[C@@H]1O` );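 further: reported value is IC50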
7.43

Missing value: pIC50, M184V pseudotyped virus in U373 cells, entry `C#C[C@]1(COC(=O)CCC)O[C@@H](n2cnc3c(N)nc(F)nc32)C[C@@H]1O` . Fill in?
7.59

I'm curious: which pIC50 was measured for C#C[C@]1(COC(=O)C(C)CCCCC)O[C@@H](n2cnc3c(N)nc(F)nc32)C[C@@H]1O (stereo partly drawn) tested on M184V pseudotyped virus in U373 cells?;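 further: reported value is IC50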
8.15

====

System: WT pseudotyped virus (PSV) infection of U373 cells
Procedure Summary: microbe, parasite or virus in culture
Format: cell-based
Reported Conditions: ratio of the IC50 determined at 48 and 0 h
Listed molecules paired with reported Persistence Index
Answer with a bare number; do not write a unit.

These recorded examples may help you get a feel for the data.
>  <Molecule>
C#C[C@]1(CO)O[C@@H](n2cnc3c(N)nc(F)nc32)C[C@@H]1O [EFdA, reference compound]

>  <Result Type>
Persistence Index

>  <Value Observed>
42.87

$$$$
>  <Molecule>
C#C[C@]1(COC(=O)CCCCCCCCCCCCC)O[C@@H](n2cnc3c(N)nc(F)nc32)C[C@@H]1O

>  <Result Type>
Persistence Index

>  <Value Observed>
35.22

$$$$
>  <Molecule>
C#C[C@]1(COC(=O)CCCCCCCCCCCCCCCCCCC)O[C@@H](n2cnc3c(N)nc(F)nc32)C[C@@H]1O

>  <Result Type>
Persistence Index

>  <Value Observed>
1.97

$$$$

Entry `C#C[C@]1(COC(=O)CCCCCCC/C=C\C/C=C\C/C=C\CC)O[C@@H](n2cnc3c(N)nc(F)nc32)C[C@@H]1O` : reported Persistence Index = ?
56.90

Bench note: what Persistence Index did `C#C[C@]1(COC(=O)C(CCC)CCC)O[C@@H](n2cnc3c(N)nc(F)nc32)C[C@@H]1O` show?
32.78

====

Test system: M184V pseudotyped virus in U373 cells;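 further: reported value is IC50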
Format: cell-based, HIV
Reported Conditions: Table 5; mean of a greater number of data replicates
Result Type: pIC50
Bear in mind: pIC50 is minus log10 of a mol/L concentration; give just that figure.

Use the examples below as a reference point.
>  <Molecule>
C#C[C@]1(COC(=O)CCCCCCCCCCCC)O[C@@H](n2cnc3c(N)nc(F)nc32)C[C@@H]1O

>  <Subject Of Test>
M184V pseudotyped virus in U373 cells;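 further: reported value is IC50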

>  <Value Observed>
7.92

$$$$
>  <Molecule>
C#C[C@]1(COC(=O)CCCCCC)O[C@@H](n2cnc3c(N)nc(F)nc32)C[C@@H]1O

>  <Subject Of Test>
M184V pseudotyped virus in U373 cells;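 further: reported value is IC50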

>  <Value Observed>
7.82

$$$$
>  <Molecule>
C#C[C@]1(COC(=O)C(C)(C)C)O[C@@H](n2cnc3c(N)nc(F)nc32)C[C@@H]1O

>  <Subject Of Test>
M184V pseudotyped virus in U373 cells;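 further: reported value is IC50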

>  <Value Observed>
6.82

$$$$
>  <Molecule>
C#C[C@]1(COC(=O)CCCCCCC/C=C\C/C=C\C/C=C\CC)O[C@@H](n2cnc3c(N)nc(F)nc32)C[C@@H]1O

>  <Subject Of Test>
M184V pseudotyped virus in U373 cells;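 further: reported value is IC50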

>  <Value Observed>
7.68

$$$$

So what pIC50 did `C#C[C@]1(COC(=O)CCCCCCCC#CCCCCCCCC)O[C@@H](n2cnc3c(N)nc(F)nc32)C[C@@H]1O` get with M184V pseudotyped virus in U373 cells?
7.85

Item: `C#C[C@]1(COC(=O)CC)O[C@@H](n2cnc3c(N)nc(F)nc32)C[C@@H]1O` Test system: M184V pseudotyped virus in U373 cells Read-out: pIC50 Value: ?;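 further: reported value is IC50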
7.41

Please tell me: pIC50 of `C#C[C@]1(COC(=O)CCCCCCCCCCCCCCCCCCC)O[C@@H](n2cnc3c(N)nc(F)nc32)C[C@@H]1O` , system M184V pseudotyped virus in U373 cells?;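 further: reported value is IC50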
6.48

// fetch M184V pseudotyped virus in U373 cells pIC50 for C#C[C@]1(COC(=O)C(CCCC)CCCCCC)O[C@@H](n2cnc3c(N)nc(F)nc32)C[C@@H]1O (stereo partly drawn)
6.95

Can you look up pIC50 on M184V pseudotyped virus in U373 cells for `C#C[C@]1(COC(=O)C(C)(C)CCC)O[C@@H](n2cnc3c(N)nc(F)nc32)C[C@@H]1O` ?
7.04

====

# reported Fold Change vs EFdA; entries follow
System: WT pseudotyped virus (PSV) infection of U373 cells
Procedure Summary: microbe, parasite or virus in culture
Format: cell-based
Reported Conditions: fold change of the persistence index relative to EFdA

Below are worked cases with known answers.
>  <Compound>
C#C[C@]1(COC(=O)CCCCCCC/C=C\C/C=C\C/C=C\CC)O[C@@H](n2cnc3c(N)nc(F)nc32)C[C@@H]1O [Example 6]

>  <Value Observed>
0.75

$$$$
>  <Compound>
C#C[C@]1(CO)O[C@@H](n2cnc3c(N)nc(F)nc32)C[C@@H]1O [EFdA, reference compound]

>  <Value Observed>
1.00

$$$$
>  <Compound>
C#C[C@]1(COC(=O)CCCCCCCCCCCCC)O[C@@H](n2cnc3c(N)nc(F)nc32)C[C@@H]1O [Example 1]

>  <Value Observed>
1.33

$$$$

Value lookup for Fold Change vs EFdA; key = C#C[C@]1(COC(=O)C(CCC)CCC)O[C@@H](n2cnc3c(N)nc(F)nc32)C[C@@H]1O [Example 4]
1.31

State the recorded Fold Change vs EFdA for this entry: C#C[C@]1(COC(=O)CCCCCCCCCCCCCCCCCCC)O[C@@H](n2cnc3c(N)nc(F)nc32)C[C@@H]1O [Example 5]
23.90
